Biological target: T1, Recombinant human DSG2 protein (Leinco Technologies) (human, UniProt Q14126 50-609)
T1 construct: also called soluble DSG2; soluble recombinant DSG2
T1 sequence: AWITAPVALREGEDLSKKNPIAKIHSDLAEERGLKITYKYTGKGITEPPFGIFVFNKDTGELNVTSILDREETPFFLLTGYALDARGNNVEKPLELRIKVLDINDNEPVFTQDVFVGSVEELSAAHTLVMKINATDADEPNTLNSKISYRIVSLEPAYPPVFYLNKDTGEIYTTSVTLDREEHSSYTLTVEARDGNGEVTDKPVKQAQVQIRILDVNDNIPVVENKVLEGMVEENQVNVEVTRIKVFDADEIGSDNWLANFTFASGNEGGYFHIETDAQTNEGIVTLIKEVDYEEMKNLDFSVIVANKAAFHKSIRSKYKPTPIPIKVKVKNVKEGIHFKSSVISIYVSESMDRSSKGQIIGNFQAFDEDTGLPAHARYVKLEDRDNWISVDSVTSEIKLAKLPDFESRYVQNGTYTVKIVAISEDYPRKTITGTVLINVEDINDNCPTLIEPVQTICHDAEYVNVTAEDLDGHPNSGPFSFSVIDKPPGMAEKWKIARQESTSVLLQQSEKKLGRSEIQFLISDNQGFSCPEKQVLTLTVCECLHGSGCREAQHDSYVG
Experiment: SPR (BIAcore 3000), DSG2 immobilised on the sensor chip, knobs injected at 2.5 to 10 µg/ml, BIAeval
measuredEndpoint: kon (M⁻¹ s⁻¹)
Please give a number only; it is taken to be in M⁻¹ s⁻¹.

- binder: "Ad3 fiber knob mutant F224L without dimerization domain (ligand, range 108-319; not shown: N-terminal 6-His tag of pQE30 and linker) NKLCSKLGNGLTFDSSNSIALKNNTLWTGPKPEANCIIEYGKQNPDSKLTLILVKNGGIVNGYVTLMGASDYVNTLFKNKNVSINVELYFDATGHILPDSSSLKTDLELKYKQTADLSARGFMPSTTAYPFVLPNAGTHNENYIFGQCYYKASDGALFPLEVTVMLNKRLPDSRTSYVMTFLWSLNAGLAPETTQATLITSPFTFSYIREDD"
  kon [M⁻¹ s⁻¹]: 34200
- binder: "Ad3 fiber knob mutant K217E+F224S without dimerization domain (ligand, range 108-319; also called K217E/F224S mutant (non-dimerized form); not shown: N-terminal 6-His tag of pQE30 and linker) NKLCSKLGNGLTFDSSNSIALKNNTLWTGPKPEANCIIEYGKQNPDSKLTLILVKNGGIVNGYVTLMGASDYVNTLFKNKNVSINVELYFDATGHILPDSSSLKTDLELEYKQTADSSARGFMPSTTAYPFVLPNAGTHNENYIFGQCYYKASDGALFPLEVTVMLNKRLPDSRTSYVMTFLWSLNAGLAPETTQATLITSPFTFSYIREDD"
  kon [M⁻¹ s⁻¹]: 58800

Okay, now this binder:
Reported kon for wt Ad3 fiber knob without dimerization domain (ligand, range 108-319; also called wt Ad3knob/noDD; wt Ad3 knob (noDD); not shown: N-terminal 6-His tag of pQE30 and the Gly/Ser linker encoded by primer P1) NKLCSKLGNGLTFDSSNSIALKNNTLWTGPKPEANCIIEYGKQNPDSKLTLILVKNGGIVNGYVTLMGASDYVNTLFKNKNVSINVELYFDATGHILPDSSSLKTDLELKYKQTADFSARGFMPSTTAYPFVLPNAGTHNENYIFGQCYYKASDGALFPLEVTVMLNKRLPDSRTSYVMTFLWSLNAGLAPETTQATLITSPFTFSYIREDD was 527
